These measurements were taken from ChEMBL document CHEMBL1146896.

target: Sodium-dependent dopamine transporter (Rattus norvegicus); assay: Displacement of [3H]beta-CIT from DAT in rat caudate homogenate
Sequence (P23977 whole entry): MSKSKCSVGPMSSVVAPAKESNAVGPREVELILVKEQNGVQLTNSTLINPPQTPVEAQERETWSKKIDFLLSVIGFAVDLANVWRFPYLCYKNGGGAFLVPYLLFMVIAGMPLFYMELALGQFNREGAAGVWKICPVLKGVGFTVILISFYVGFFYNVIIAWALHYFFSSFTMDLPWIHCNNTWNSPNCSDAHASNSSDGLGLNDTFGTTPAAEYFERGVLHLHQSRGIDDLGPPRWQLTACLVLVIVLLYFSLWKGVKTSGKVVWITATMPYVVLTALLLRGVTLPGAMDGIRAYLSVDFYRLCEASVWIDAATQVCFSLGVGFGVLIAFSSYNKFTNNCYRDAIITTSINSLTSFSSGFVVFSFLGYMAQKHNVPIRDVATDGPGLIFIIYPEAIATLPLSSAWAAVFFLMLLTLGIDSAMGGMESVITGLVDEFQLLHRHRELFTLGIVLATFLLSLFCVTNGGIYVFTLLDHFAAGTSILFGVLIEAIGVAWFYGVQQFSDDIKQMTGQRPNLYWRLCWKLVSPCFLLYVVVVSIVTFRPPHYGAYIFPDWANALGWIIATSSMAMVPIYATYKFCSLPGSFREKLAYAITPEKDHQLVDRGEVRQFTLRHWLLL
pKi: −log10 of the molar value.
ASSAY_READOUT: pKi

A selection of reference data follows.
COMPOUND	pKi
COC(=O)[C@@H]1CN(C)CC[C@@H]1c1ccc(-c2nccs2)cc1 (racemic)	< 5.00
COC(=O)[C@@H]1CN(C)CC[C@@H]1c1ccc(C=O)cc1	< 5.00

In the following, a different compound is considered.
In plain terms, "COC(=O)[C@@H]1CN(C)CC[C@@H]1c1ccc(-c2cccs2)cc1" has a documented pKi of ≤ 5.30
